meta.source: paper PMC6218797

Biological target: Bgl3B (Rasamsonia emersonii, UniProt A0A343J2C3)
Construct: pPIC9, secreted from Pichia pastoris GS115; N-glycosylated, about 100 kDa on SDS-PAGE
Sequence (A0A343J2C3 1-841): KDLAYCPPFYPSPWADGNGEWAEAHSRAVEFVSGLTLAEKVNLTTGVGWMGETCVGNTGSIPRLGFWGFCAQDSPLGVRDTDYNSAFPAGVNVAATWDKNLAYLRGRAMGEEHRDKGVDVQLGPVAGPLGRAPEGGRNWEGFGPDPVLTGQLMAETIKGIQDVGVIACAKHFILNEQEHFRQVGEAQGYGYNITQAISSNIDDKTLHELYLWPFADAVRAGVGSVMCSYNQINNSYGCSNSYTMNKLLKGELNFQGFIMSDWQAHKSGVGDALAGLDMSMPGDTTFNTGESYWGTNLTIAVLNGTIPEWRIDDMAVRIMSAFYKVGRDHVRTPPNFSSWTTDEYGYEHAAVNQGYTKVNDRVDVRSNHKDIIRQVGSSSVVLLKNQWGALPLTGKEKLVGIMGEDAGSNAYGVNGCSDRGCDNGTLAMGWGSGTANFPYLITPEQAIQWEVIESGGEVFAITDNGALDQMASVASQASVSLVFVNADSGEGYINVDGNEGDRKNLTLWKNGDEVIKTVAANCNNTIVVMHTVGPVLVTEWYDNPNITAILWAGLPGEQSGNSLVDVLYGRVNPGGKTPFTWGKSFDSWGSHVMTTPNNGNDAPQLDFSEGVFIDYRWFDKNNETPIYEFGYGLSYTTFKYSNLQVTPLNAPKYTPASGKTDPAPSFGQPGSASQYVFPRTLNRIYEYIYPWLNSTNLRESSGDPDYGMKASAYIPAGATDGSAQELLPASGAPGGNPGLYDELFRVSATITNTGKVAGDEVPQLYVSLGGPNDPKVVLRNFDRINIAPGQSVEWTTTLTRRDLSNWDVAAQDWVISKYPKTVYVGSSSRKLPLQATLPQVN
Assay: pNP release at […] nm, Dixon plot
Settings: substrate pNPG 3 or 4 mM; pH 4.5, 65°C, citric acid-Na2HPO4; inhibition mode not stated
pKi: −log10 of the molar value.

| molecule | pKi |
| --- | --- |
| OC[C@H]1OC(O)[C@H](O)[C@@H](O)[C@@H]1O (stereo partly shown) | 2.15 |
